B1: HDAC6 (parent)
chain: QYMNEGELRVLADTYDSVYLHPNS

Variants of: B1
measurement-notes: protein stability index of a GFP-peptide fusion (GPS, HEK-293T) (PSI 1-6); higher = more stable;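 further: lentivirally expressed fusions sorted by FACS into six bins by GFP to DsRed ratio, PSI derived from sequencing read proportions per bin multiplied by bin number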
recorded-conditions: c terminus: a fixed tail appended
Rule: protein stability index under 2 gives FALSE, otherwise TRUE.

Given the entry "L8H" , answer whether its protein stability index meets or surpasses 2.
TRUE

How about "D16W" ?
TRUE

Now consider "S17V" .
TRUE

Also "N4Y" , if possible.
FALSE

Now the variant "V18K"
TRUE
